Ref: patent US11339171B2

Catalogue of molecules with associated half-life
- test.description: Pharmacokinetics in ICR mice after intravenous and intragastric administration
- Assay type: in vivo
- study.conditions: male, ICR, mouse, plasma, iv, 2 mg/kg, ICR mice, IV 2 mg/kg, mean of 3 animals; read-out: t1/2 (converted)
State the answer as a number, implicitly in h.

COc1cc(C2CC2)ncc1-c1nc2c(n1C(C)C)[C@@]1(C(=O)Nc3cc(Cl)ccc31)N(c1cc(Cl)ccc1C)C2=O [Example S-103] | 3.24
COc1nc(C2CC2)ncc1-c1nc2c(n1C(C)C)[C@@]1(C(=O)Nc3cc(Cl)ccc31)N(c1cc(Cl)cnc1C)C2=O [Example S-159] | 1.61
COc1cc(OC)c(-c2nc3c(n2C(C)C)[C@@]2(C(=O)Nc4cc(Cl)ccc42)N(c2cccc(Cl)c2)C3=O)cn1 [Example S-115] | 0.87
COc1ncc(-c2nc3c(n2C(C)C)[C@@]2(C(=O)Nc4cc(Cl)ccc42)N(c2cc(Cl)ccc2F)C3=O)c(OC)n1 [Example S-44] | 1.87
COc1cc(OC)c(-c2nc3c(n2C(C)C)[C@@]2(C(=O)Nc4cc(Cl)ccc42)N(c2cc(Cl)cnc2C)C3=O)cn1 [Example S-131] | 0.88
CCOc1cc(OC)c(-c2nc3c(n2C(C)C)[C@@]2(C(=O)Nc4cc(Cl)ccc42)N(c2cc(Cl)ccc2F)C3=O)cn1 [Example S-98] | 1.51
CCOc1cc(OC)c(-c2nc3c(n2C(C)C)[C@@]2(C(=O)Nc4cc(Cl)ccc42)N(c2cc(Cl)cnc2C)C3=O)cn1 [Example S-96] | 1.79
COc1nc(N(C)C)ncc1-c1nc2c(n1C(C)C)[C@@]1(C(=O)Nc3cc(Cl)ccc31)N(c1cc(Cl)cnc1C)C2=O [Example S-135] | 1.82
COc1cc(C(F)(F)F)ncc1-c1nc2c(n1C(C)C)[C@@]1(C(=O)Nc3cc(Cl)ccc31)N(c1cc(Cl)ccc1C)C2=O [Example S-138] | 4.04
COc1ncc(-c2nc3c(n2C(C)C)[C@@]2(C(=O)Nc4cc(Cl)ccc42)N(c2cc(F)cc(Cl)c2)C3=O)c(OC)n1 [Example S-45] | 1.02

Give recorded half-life. COc1nc(C2CC2)ncc1-c1nc2c(n1C(C)C)[C@@]1(C(=O)Nc3cc(Cl)ccc31)N(c1cc(Cl)ccc1C)C2=O [Example S-121] 5.28

Give reported half-life value for COc1nc(OCCF)ncc1-c1nc2c(n1C(C)C)[C@@]1(C(=O)Nc3cc(Cl)ccc31)N(c1cc(Cl)ccc1C)C2=O [Example S-140] 2.86

Provide only the value of recorded half-life for COc1cc(OC)c(-c2nc3c(n2C(C)C)[C@@]2(C(=O)Nc4cc(Cl)ccc42)N(c2cc(Cl)ccc2F)C3=O)cn1 [Example S-133] 1.14

---

- test.description: Pharmacokinetics in ICR mice after intravenous and intragastric administration
- Type: in vivo
- study.conditions: male, ICR, mouse, plasma, po, 5 mg/kg, ICR mice, PO 5 mg/kg, individual animals 401-403; read-out: MRT(0-t)
quantity: MRT last (h)
Value expressed in h; do not type the unit.

In the examples that follow, each entry is paired with its recorded MRT last.
COc1nc(OCCF)ncc1-c1nc2c(n1C(C)C)[C@@]1(C(=O)Nc3cc(Cl)ccc31)N(c1cc(Cl)ccc1C)C2=O [Example S-140] | 2.97
CCOc1ncc(-c2nc3c(n2C(C)C)[C@@]2(C(=O)Nc4cc(Cl)ccc42)N(c2cc(Cl)cnc2C)C3=O)c(OC)n1 [Example S-134] | 2.04

Attention now shifts to the item below.
# return recorded MRT last for input COc1nc(N(C)C)ncc1-c1nc2c(n1C(C)C)[C@@]1(C(=O)Nc3cc(Cl)ccc31)N(c1cc(Cl)cnc1C)C2=O [Example S-135] 2.64

---

- test.description: Pharmacokinetics in ICR mice after intravenous and intragastric administration
- Assay type: in vivo
- study.conditions: male, ICR, mouse, plasma, po, 5 mg/kg, ICR mice, PO 5 mg/kg, individual animals 401-403; read-out: MRT(0-∞)
quantity: MRT inf (h)
State the answer as a number, implicitly in h.

COc1nc(OCCF)ncc1-c1nc2c(n1C(C)C)[C@@]1(C(=O)Nc3cc(Cl)ccc31)N(c1cc(Cl)ccc1C)C2=O [Example S-140] | 3.69
COc1cc(C(F)(F)F)ncc1-c1nc2c(n1C(C)C)[C@@]1(C(=O)Nc3cc(Cl)ccc31)N(c1cc(Cl)ccc1C)C2=O [Example S-138] | 5.12

Now look at this one.
Identify measured MRT inf associated with CCOc1ncc(-c2nc3c(n2C(C)C)[C@@]2(C(=O)Nc4cc(Cl)ccc42)N(c2cc(Cl)cnc2C)C3=O)c(OC)n1 [Example S-134] 2.21

---

- test.description: Pharmacokinetics in ICR mice after intravenous and intragastric administration
- Assay type: in vivo
- study.conditions: male, ICR, mouse, plasma, iv, 2 mg/kg, ICR mice, IV 2 mg/kg, mean of 3 animals
quantity: clearance (mL/min/kg)
Write the value in mL/min/kg as a bare number.

For orientation, consider the following solved cases.
COc1cc(C(F)(F)F)ncc1-c1nc2c(n1C(C)C)[C@@]1(C(=O)Nc3cc(Cl)ccc31)N(c1cc(Cl)ccc1C)C2=O | 5.66
COc1cc(OC)c(-c2nc3c(n2C(C)C)[C@@]2(C(=O)Nc4cc(Cl)ccc42)N(c2cc(Cl)ccc2F)C3=O)cn1 | 9.46
COc1nc(C2CC2)ncc1-c1nc2c(n1C(C)C)[C@@]1(C(=O)Nc3cc(Cl)ccc31)N(c1cc(Cl)cnc1C)C2=O | 15.1

Quickly give me recorded clearance for COc1cc(C2CC2)ncc1-c1nc2c(n1C(C)C)[C@@]1(C(=O)Nc3cc(Cl)ccc31)N(c1cc(Cl)ccc1C)C2=O 4.5

Return clearance (reported value) for this molecule: COc1cc(OC(C)C)ncc1-c1nc2c(n1C(C)C)[C@@]1(C(=O)Nc3cc(Cl)ccc31)N(c1cc(Cl)ccc1C)C2=O 0.64

Consider the molecule COc1ncc(-c2nc3c(n2C(C)C)[C@@]2(C(=O)Nc4cc(Cl)ccc42)N(c2cc(F)cc(Cl)c2)C3=O)c(OC)n1 and give its recorded clearance. 17.2

State, in one line, measured clearance of CCOc1cc(OC)c(-c2nc3c(n2C(C)C)[C@@]2(C(=O)Nc4cc(Cl)ccc42)N(c2cc(Cl)ccc2F)C3=O)cn1 3.16

---

Below is a list of entries, each paired with its recorded IC50 value.
- Tested on: human osteosarcoma cell line SJSA-1
- test.description: Inhibition of proliferation of human osteosarcoma cell line SJSA-1 (DAPI staining, In Cell Analyzer)
- study.conditions: Homo sapiens, SJSA-1, 72 h, read-out: IC50 (nM), inhibitory activity on proliferation of human osteosarcoma cell line SJSA-1, SJSA-1, incubated 72 h
Answer format: numeric, nM implied, no suffix.

COc1ccc(-c2nc3c(n2C(C)C)[C@@]2(C(=O)Nc4cc(Cl)ccc42)N(c2cc(Cl)cnc2C)C3=O)c(OC)c1 [Example S-61] | 5.5
COc1cc(N)ccc1-c1nc2c(n1C(C)C)[C@@]1(C(=O)Nc3cc(Cl)ccc31)N(c1ccc(F)c(Cl)c1)C2=O [Example S-73] | 251
COc1cc(C2CC2)ccc1-c1nc2c(n1C(C)C)[C@@]1(C(=O)Nc3cc(Cl)ccc31)N(c1cc(Cl)ccc1C)C2=O [Example S-86] | 21.2
COc1ncncc1-c1nc2c(n1C(C)C)[C@@]1(C(=O)Nc3cc(Cl)ccc31)N(c1cc(Cl)ccc1C)C2=O [Example S-27] | 119
COc1cc(OC)c(-c2nc3c(n2C(C)C)[C@@]2(C(=O)Nc4cc(Cl)ccc42)N(c2cccc(Cl)c2)C3=O)cn1 [Example S-115] | 3360

Answer with reported IC50 of COc1cc(C2CC2)ncc1-c1nc2c(n1C(C)C)[C@@]1(C(=O)Nc3cc(Cl)ccc31)N(c1cc(F)cc(Cl)c1)C2=O [Example S-176] 28.8

Respond only with IC50 recorded for CCc1ccc(-c2nc3c(n2C(C)C)[C@@]2(C(=O)Nc4cc(Cl)ccc42)N(c2cccc(Cl)c2)C3=O)c(OC)c1 [Example S-107] 115

Supply reported IC50 belonging to this compound: CNC(=O)c1ccc(OC)c(-c2nc3c(n2C(C)C)[C@@]2(C(=O)Nc4cc(Cl)ccc42)N(c2cc(Cl)ccc2C)C3=O)c1 [Example S-21] 62.2

Please look at this compound and report its IC50: COc1cc(N(C)C)ccc1-c1nc2c(n1C(C)C)[C@@]1(C(=O)Nc3cc(Cl)ccc31)N(c1cccc(Cl)c1)C2=O [Example S-104] 266

Supply IC50 value. Item: COc1nc(C2CC2)ncc1-c1nc2c(n1C(C)C)[C@@]1(C(=O)Nc3cc(Cl)ccc31)N(c1cc(Cl)cnc1C)C2=O [Example S-159] 34.2

Identify the reported IC50 for the following entry. COc1cc(C2CC2)ncc1-c1nc2c(n1C(C)C)[C@]1(C(=O)Nc3cc(Cl)ccc31)N(c1cc(Cl)ccc1C)C2=O [Example R-103] 2430

Item CCc1ccc(OC)c(-c2nc3c(n2C(C)C)[C@@]2(C(=O)Nc4cc(Cl)ccc42)N(c2cc(Cl)ccc2C)C3=O)c1 [Example S-37] : provide IC50 14.2

Supply reported IC50 belonging to this compound: CCN(C)c1ccc(-c2nc3c(n2C(C)C)[C@@]2(C(=O)Nc4cc(Cl)ccc42)N(c2cc(Cl)ccc2C)C3=O)c(OC)c1 [Example S-99] 34.2
